- TESTED_SYSTEM: aromatase (Rattus norvegicus)
- Sequence (P22443 1-508): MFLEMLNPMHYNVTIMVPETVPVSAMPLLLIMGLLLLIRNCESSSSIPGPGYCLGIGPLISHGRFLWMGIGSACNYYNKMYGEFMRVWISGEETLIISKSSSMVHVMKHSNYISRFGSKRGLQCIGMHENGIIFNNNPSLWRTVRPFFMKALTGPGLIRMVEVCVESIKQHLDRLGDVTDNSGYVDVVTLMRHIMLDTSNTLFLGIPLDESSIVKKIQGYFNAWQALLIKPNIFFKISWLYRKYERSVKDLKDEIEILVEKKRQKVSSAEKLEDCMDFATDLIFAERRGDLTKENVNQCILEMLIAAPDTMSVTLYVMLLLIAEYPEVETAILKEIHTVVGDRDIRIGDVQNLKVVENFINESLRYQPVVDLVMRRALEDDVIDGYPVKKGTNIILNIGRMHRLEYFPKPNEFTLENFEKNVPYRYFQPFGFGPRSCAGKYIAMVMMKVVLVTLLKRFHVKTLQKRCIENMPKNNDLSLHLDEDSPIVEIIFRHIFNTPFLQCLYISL
- METHOD_DESCRIPTION: biochemical
- CONDITION_SUMMARY: rat ovarian microsomes; substrate (androstenedione) concentration 0.1 μM
pEC50: −log10 of the molar value. Counter-ions that a name gives are not always drawn.
METRIC: pEC50

- MOLECULE: "Clc1ccc2c(c1)C(n1ccnc1)CCC2 (stereo not drawn)"
  TESTED_SYSTEM: "aromatase (Rattus norvegicus)"
  RECORDED_MEASUREMENT: 7.00

I = Clc1cccc2c1CCC2n1ccnc1 (stereo not drawn)
II = c1ccc2c(c1)OCCC2n1ccnc1 (stereo not drawn) [hydrochloride]
**Q:** Which shows the larger pEC50 value: I or II ? Selection: enter the item's label.
**A:** I

* * *

- TESTED_SYSTEM: aromatase (Rattus norvegicus, UniProt P22443)
- METHOD_DESCRIPTION: biochemical
pEC50: −log10 of the molar value.
METRIC: pEC50

- MOLECULE: "c1ccc2c(c1)CCC2n1ccnc1 (centres unmarked) [nitrate]"
  pEC50: 6.09

I = c1ccc2c(c1)SCCC2n1ccnc1 (centres unmarked) [nitrate]
II = COc1ccc2c(c1)C(n1ccnc1)CCC2 (centres unmarked) [nitrate]
**Q:** Which shows the larger pEC50 value: I or II ? Selection: enter the item's label.
**A:** II

1 = COc1ccc(OC)c2c1CCC2n1ccnc1 (centres unmarked) [nitrate]
2 = COc1cccc2c1CCCC2n1ccnc1 (centres unmarked) [nitrate]
**Q:** Which shows the larger pEC50 value: 1 or 2 ? Selection: enter the item's label.
**A:** 2

* * *

- TESTED_SYSTEM: aromatase (Rattus norvegicus)
- METHOD_DESCRIPTION: biochemical
METRIC: EC50 (nM)

- COMPOUND: "Clc1cc2c(cc1Cl)C(n1ccnc1)CC2.O=[N+]([O-])O (stereo not drawn) [nitrate]"
  EC50, nM: 78

P = Clc1cc(Cl)c2c(c1)C(n1ccnc1)CC2 (stereo not drawn) [nitrate]
Q = c1ccc2c(c1)CCCC2n1ccnc1 (stereo not drawn) [nitrate]
**Q:** Hi! Which is lower in terms of EC50, the first one P or the second one Q ? Selection: enter the item's label.
**A:** P
(P: 115 nM, Q: 520 nM)
